Values compiled from patent US20200399712A1.

System: HPV-16
assayNotes: qPCR sensitivity against HPV-HNSCC tumor samples diluted among 10 ng normal human DNA
conditionDescription: Sample # 11
reportedProperty: Threshold of tumor cell numbers for HPV-16 detection (tumor cells)
Supply the numeric figure in tumor cells, leaving out any unit text.

// Input: E6: previously designed (historical) HPV-16 E6 primers and Taqman probe, SEQ ID NO: 7-9, positive control (nucleic acid, Taqman probe, labels not given here) DNA 1: TCAGGACCCACAGGAGCG DNA 2: CCTCACGTCGCAGTAACTGTTG DNA 3: CCCAGAAAGTTACCACAGTTATGCACAGAGCT . Output its Threshold of tumor cell numbers for HPV-16 detection only.
60.0

// Input: HR E5L2-4: primer/probe set for junction between E5 and L2, SEQ ID NO: 55-57 (same as SEQ ID NO: 4-6) (nucleic acid, chemistry not given here) DNA 1: GCAAAACGCACAAAACGTGC DNA 2: GACATGTACCTGCCTGTTTGC DNA 3: CGGCTACCCAACTTTATAAAACA . Output its Threshold of tumor cell numbers for HPV-16 detection only.
6.0

// Input: BR E1-4: HPV-16 E1 region primer/probe set, SEQ ID NO: 37-39 (nucleic acid, chemistry not given here) DNA 1: ATGCACAATTGGCAGACACTA DNA 2: ACAATCCTTTACAATTTTTGCCTGT DNA 3: TAATGCAAGTGCCTTTCTAAAAAGT . Output its Threshold of tumor cell numbers for HPV-16 detection only.
1.2

// Input: E7: previously designed (historical) HPV-16 E7 primers and Taqman probe, SEQ ID NO: 10-12; part of CLIA test (nucleic acid, Taqman probe, labels not given here, part of CLIA test) DNA 1: CCGGACAGAGCCCATTACAA DNA 2: CGAATGTCTACGTGTGTGCTTTG DNA 3: CGCACAACCGAAGCGTAGAGTCACACT . Output its Threshold of tumor cell numbers for HPV-16 detection only.
6.0

// Input: BR E6-1: HPV-16 E6 region (172-373 bp) primer/probe set, SEQ ID NO: 58-60 (nucleic acid, chemistry not given here) DNA 1: CAGTTACTGCGACGTGAGGT DNA 2: ACAGCATATGGATTCCCATCTC DNA 3: ACTTTGCTTTTCGGGATTTATGCATAGTA . Output its Threshold of tumor cell numbers for HPV-16 detection only.
30.0

// Input: BR E1-5: HPV-16 E1 region primer/probe set, SEQ ID NO: 40-42 (same as SEQ ID NO: 1-3) (nucleic acid, chemistry not given here) DNA 1: GCACAATTGGCAGACACTAAT DNA 2: GCACAATCCTTTACAATTTTTGCC DNA 3: AGTAATGCAAGTGCCTTTCTAAAAAGTAATTC . Output its Threshold of tumor cell numbers for HPV-16 detection only.
30.0

// Input: BR E1-6: HPV-16 E1 region primer/probe set, SEQ ID NO: 43-45 (nucleic acid, chemistry not given here) DNA 1: ATGCACAATTGGCAGACACTAA DNA 2: AATCCTTTACAATTTTTGCCTGTGA DNA 3: AGTAATGCAAGTGCCTTTCTAAAAAGTA . Output its Threshold of tumor cell numbers for HPV-16 detection only.
6.0
